Attribution: patent US20040086502A1

# target: T1, VEGF(8-109) (UniProt P15692 214-315)
# T1 construct: range 8-109; Covalently coupled to the BIACORE chip (EDC/NHS); also called vascular endothelial growth factor
# T1 sequence (looked up): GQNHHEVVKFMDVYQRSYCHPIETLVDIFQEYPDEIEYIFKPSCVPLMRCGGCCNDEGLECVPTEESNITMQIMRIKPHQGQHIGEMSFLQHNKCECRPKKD
# protocolNotes: SPR (BIACORE-2000), Fab injected over immobilised VEGF(8-109), 25 C
# Procedure: BIACORE™ Analysis: The VEGF-binding affinities of Fab fragments were calculated from association and dissociation rate constants measured using a BIACORE™-2000 surface plasmon resonance system (BIACORE™, Inc., Piscataway, N.J.). A biosensor chip was activated for covalent coupling of VEGF using N-ethyl-N′-(3-dimethylaminopropyl)-carbodiimide hydrochloride (EDC) and N-hydroxysuccinimide (NHS) according to the supplier's (BIACORE™, Inc., Piscataway, N.J.) instructions. […]
// reported kon per item
Return type: number; implicit unit M⁻¹ s⁻¹.

Answered cases to consult:
• Y0239-2 Fab (Fab, V domains shown) VH: EVQLVESGGGLVQPGGSLRLSCAASGYTFTNYGMNWVRQAPGKGLEWVGWINTYTGEPTYAADFKRRFTFSLDTSKSTAYLQMNSLRAEDTAVYYCAKYPHYYKNDKSSHWYFDVWGQGTL VL: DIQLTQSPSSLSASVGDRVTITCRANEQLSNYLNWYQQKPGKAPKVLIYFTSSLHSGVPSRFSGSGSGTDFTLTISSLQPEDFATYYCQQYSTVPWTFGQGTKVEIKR = 36000
• Y0240-1 Fab (Fab, V domains shown) VH: EVQLVESGGGLVQPGGSLRLSCAASGYTFTNYGMNWVRQAPGKGLEWVGWINTYTGEPTYAADFKRRFTFSLDTSKSTAYLQMNSLRAEDTAVYYCAKYPHYYLTDHKSHWYFDVWGQGTL VL: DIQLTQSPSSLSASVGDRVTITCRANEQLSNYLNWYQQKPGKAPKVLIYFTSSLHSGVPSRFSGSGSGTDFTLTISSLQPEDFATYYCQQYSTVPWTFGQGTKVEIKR = 25000

Shifting focus to the binder that follows.
-- ask So what does the record say about kon for Y0239-8 Fab (Fab, V domains shown) VH: EVQLVESGGGLVQPGGSLRLSCAASGYTFTNYGMNWVRQAPGKGLEWVGWINTYTGEPTYAADFKRRFTFSLDTSKSTAYLQMNSLRAEDTAVYYCAKYPHYYLRDGRSSHWYFDVWGQGTL VL: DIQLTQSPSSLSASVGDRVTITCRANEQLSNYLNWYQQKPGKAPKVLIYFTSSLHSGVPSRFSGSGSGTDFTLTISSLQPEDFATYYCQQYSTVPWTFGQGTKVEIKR ?
-- reply 38000
